Origin of the recorded values: the kinase profiling compilation of Christmann-Franck et al. (2016)

We begin with a simple list: items and their reported kinase still bound, per cent of control.
# tested on: MAPK7 (human) (UniProt Q13164)
# Sequence (Q13164 whole entry, looked up): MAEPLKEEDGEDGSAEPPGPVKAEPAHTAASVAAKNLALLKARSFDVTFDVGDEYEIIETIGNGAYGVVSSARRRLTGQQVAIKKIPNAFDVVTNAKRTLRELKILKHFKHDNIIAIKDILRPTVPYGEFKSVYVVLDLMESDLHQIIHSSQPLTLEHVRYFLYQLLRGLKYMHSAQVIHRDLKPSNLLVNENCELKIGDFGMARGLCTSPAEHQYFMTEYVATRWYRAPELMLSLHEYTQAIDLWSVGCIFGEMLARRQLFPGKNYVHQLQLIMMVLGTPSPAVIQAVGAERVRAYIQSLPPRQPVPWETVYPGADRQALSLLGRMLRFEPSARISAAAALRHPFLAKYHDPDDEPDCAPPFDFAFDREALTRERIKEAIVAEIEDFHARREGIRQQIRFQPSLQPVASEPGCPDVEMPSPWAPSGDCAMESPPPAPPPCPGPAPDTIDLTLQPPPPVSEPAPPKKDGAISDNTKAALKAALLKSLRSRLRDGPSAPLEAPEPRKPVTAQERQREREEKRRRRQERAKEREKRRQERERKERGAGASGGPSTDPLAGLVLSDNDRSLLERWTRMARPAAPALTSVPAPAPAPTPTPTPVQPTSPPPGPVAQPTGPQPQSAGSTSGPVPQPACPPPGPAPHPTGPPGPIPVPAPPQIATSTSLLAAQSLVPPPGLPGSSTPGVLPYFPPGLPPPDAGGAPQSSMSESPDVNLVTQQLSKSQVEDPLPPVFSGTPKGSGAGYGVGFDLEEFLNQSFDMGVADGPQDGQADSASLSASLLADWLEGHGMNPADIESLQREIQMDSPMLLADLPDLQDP
# experiment notes: KINOMEscan competition binding
# assay conditions: compound 10.0 µM

{"columns": ["molecule", "kinase still bound, per cent of control / %"],
 "data": [
  ["COc1cc(C(=O)NC2CCN(C)CC2)ccc1Nc1ncc2c(n1)N(C1CCCC1)CCC(=O)N2C(C)C", 100],
  ["N#Cc1c(NC(=O)c2cccc3ccccc23)sc2c1CCCC2", 96],
  ["CN(C)C/C=C/C(=O)Nc1cccc(Nc2ncc3c(n2)N(C)c2ccccc2C(=O)N3C)c1", 0.1],
  ["O=C(O)c1ccc(Nc2ncc3c(n2)-c2ccc(Cl)cc2C(c2c(F)cccc2F)=NC3)cc1", 100],
  ["CCN1CCN(Cc2ccc(Nc3ncc4c(n3)N(C)c3ccccc3C(=O)N4C)cc2C(F)(F)F)CC1", 0.1],
  ["COc1cc(N2CCN(C)CC2)ccc1Nc1nc(N)c(C(=O)c2c(Cl)cccc2Cl)s1", 14],
  ["Cn1c(=O)n(-c2ccc(C(C)(C)C#N)cc2)c2c3cc(-c4cnc5ccccc5c4)ccc3ncc21", 100],
  ["Cc1ccc(NC(=O)c2cccc(C(C)(C)C#N)c2)cc1Nc1ccc2ncn(C)c(=O)c2c1", 100],
  ["O=C(NOC[C@H](O)CO)c1ccc(F)c(F)c1Nc1ccc(I)cc1F", 88],
  ["COc1cc(C(=O)NC2CCN(C)CC2)ccc1Nc1ncc2c(n1)N(C1CCCC1)C(C)CC(=O)N2C (centres undefined)", 100],
  ["C[C@@H](Oc1cc(-n2cnc3ccc(CN4CCN(C)CC4)cc32)sc1C(N)=O)c1ccccc1C(F)(F)F", 91],
  ["CC[C@@H]1C(=O)N(C)c2cnc(Nc3ccc(C(=O)NC4CCN(C)CC4)cc3OC)nc2N1C1CCCC1", 19],
  ["Cc1ccc2nc(NCCN)c3ncc(C)n3c2c1", 0.7],
  ["O=C1Nc2ccc(I)cc2/C1=C/c1cc(Br)c(O)c(Br)c1", 5],
  ["Nc1ccc(-c2ccc3ncc4ccc(=O)n(-c5cccc(C(F)(F)F)c5)c4c3c2)cn1", 100],
  ["C=CC(=O)Nc1cccc(Nc2nc(N[C@H]3CC[C@H](N(C)C)CC3)nc3c2ncn3C(C)C)c1", 100],
  ["C=CC(=O)Nc1cccc(Oc2nc(Nc3ccc(N4CCN(C)CC4)cc3OC)ncc2Cl)c1", 4],
  ["C=CC(=O)Nc1cc(NC(=O)c2ccc(C)c(NC(=O)c3ccno3)c2)cc(C(F)(F)F)c1", 92],
  ["CCCS(=O)(=O)Nc1ccc(F)c(C(=O)c2c[nH]c3ncc(-c4ccc(Cl)cc4)cc23)c1F", 69]
]}

====

# System: KIT (human), P10721 [V559D]
# Sequence (P10721 whole entry V559D, looked up): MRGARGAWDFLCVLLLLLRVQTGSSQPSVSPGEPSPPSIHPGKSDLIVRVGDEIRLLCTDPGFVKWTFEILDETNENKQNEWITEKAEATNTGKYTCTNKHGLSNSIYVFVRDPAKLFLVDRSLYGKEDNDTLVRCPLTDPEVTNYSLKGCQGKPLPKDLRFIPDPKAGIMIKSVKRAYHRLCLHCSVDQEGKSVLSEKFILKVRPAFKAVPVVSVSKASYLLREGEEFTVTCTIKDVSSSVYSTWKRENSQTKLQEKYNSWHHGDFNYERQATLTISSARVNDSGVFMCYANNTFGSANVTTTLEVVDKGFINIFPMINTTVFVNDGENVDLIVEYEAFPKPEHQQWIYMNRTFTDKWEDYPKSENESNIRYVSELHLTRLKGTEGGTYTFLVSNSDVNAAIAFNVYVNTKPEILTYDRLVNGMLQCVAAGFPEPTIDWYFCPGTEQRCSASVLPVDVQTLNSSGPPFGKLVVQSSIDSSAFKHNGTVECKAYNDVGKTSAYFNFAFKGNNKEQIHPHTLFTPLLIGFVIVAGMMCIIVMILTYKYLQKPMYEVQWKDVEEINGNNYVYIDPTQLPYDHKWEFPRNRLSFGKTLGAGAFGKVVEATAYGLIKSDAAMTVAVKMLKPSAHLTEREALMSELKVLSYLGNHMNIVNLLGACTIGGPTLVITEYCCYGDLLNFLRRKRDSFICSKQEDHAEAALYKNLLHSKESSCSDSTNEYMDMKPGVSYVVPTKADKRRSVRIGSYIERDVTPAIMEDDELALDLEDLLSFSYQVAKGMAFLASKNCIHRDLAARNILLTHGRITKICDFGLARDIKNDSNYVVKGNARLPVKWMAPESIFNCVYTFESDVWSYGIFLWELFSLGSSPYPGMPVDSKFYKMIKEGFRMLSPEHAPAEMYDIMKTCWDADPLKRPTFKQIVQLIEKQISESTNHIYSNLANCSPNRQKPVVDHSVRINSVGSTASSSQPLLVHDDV
# experiment notes: KINOMEscan competition binding
# assay conditions: compound 10.0 µM
Please respond with true when measured kinase still bound, per cent of control is strictly beneath 0.05%, and with false in all other cases.

{"columns": ["compound", "tested on", "assigned category"],
 "data": [
  ["O=C(NC1CC1)c1cccc(-c2ccc3c(NC(=O)C4CC4)n[nH]c3c2)c1", "KIT (human), P10721 [V559D]", "false"],
  ["CC1=C(C(=O)Nc2cc3cn[nH]c3cc2F)C(c2ccc(C(F)(F)F)cc2)CC(=O)N1 (stereo not given)", "KIT (human), P10721 [V559D]", "false"],
  ["Cc1ccc(C(=O)Nc2cccc(C(F)(F)F)c2)cc1Nc1cncc(C(N)=O)c1", "KIT (human), P10721 [V559D]", "true"],
  ["COc1cc(N2CCN(C)CC2)ccc1Nc1ncc2c(n1)N(C)c1ccccc1C(=O)N2C", "KIT (human), P10721 [V559D]", "false"]
]}
